Test: Beagle dog PK study 1 of Example 101 (propylene glycol-based formulation, IV and PO), with clinical observations
Format: in vivo
Experimental parameters: beagle, dog, plasma, po, 5 mg/kg, dog PK study 1, oral, Test Animal 3; read-out: MRTInf—obs
Readout label: MRT inf
Give the number first and the unit second.

Sample CNC(=O)c1[nH]c(C(=O)NC2CCC2)cc1O[C@@H](C)c1ccccc1 (stereo in doubt) [Example 101] — what was its MRT inf?
1.83 h

###

Test: Beagle dog PK study 1 of Example 101 (propylene glycol-based formulation, IV and PO), with clinical observations
Format: in vivo
Experimental parameters: beagle, dog, plasma, iv, 1 mg/kg, dog PK study 1, IV, 8 h, Test Animal 2; read-out: Plasma concentration
Readout label: concentration at 8 h (ng/mL)
Return type: number; implicit unit ng/mL.

Sample CNC(=O)c1[nH]c(C(=O)NC2CCC2)cc1O[C@@H](C)c1ccccc1 (stereo in doubt) — what was its concentration at 8 h?
3.65
